Target: FGFR3 (UniProt P22607)
Sequence (P22607 whole entry, looked up): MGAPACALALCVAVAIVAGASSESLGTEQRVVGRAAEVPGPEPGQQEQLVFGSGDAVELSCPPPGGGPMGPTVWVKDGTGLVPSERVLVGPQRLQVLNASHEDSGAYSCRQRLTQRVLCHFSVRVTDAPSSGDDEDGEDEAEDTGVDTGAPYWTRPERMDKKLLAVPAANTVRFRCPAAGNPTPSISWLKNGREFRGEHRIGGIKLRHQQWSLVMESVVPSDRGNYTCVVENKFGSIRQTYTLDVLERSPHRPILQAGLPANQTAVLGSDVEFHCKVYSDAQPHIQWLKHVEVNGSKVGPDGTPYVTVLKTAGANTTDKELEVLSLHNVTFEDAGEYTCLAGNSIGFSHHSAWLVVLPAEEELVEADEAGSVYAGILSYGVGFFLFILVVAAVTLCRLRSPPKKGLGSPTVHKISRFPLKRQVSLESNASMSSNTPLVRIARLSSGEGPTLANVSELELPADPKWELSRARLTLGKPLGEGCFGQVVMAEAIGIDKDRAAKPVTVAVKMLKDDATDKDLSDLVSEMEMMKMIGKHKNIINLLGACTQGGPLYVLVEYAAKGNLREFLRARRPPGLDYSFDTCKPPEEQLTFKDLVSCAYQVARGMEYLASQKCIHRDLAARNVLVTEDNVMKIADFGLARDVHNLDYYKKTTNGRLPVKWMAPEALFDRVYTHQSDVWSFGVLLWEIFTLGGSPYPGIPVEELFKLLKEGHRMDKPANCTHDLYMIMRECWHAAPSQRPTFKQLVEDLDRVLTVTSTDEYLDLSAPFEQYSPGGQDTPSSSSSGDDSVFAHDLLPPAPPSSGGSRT
Assay: phosphorylation enrichment, bacterial display (enrichment ratio); higher = better substrate or ligand; peptides without Tyr show the background;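 also: 11-residue human phosphosite peptides and single-mutation variants displayed on the E. coli surface, counted by deep sequencing, each peptide's frequency after selection divided by its frequency in the unselected input library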;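 also: frequency after pTyr selection over input frequency; kinase dosed for 20-30% of maximal phosphorylation in three min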
Could you please classify the records by phosphorylation enrichment using these ranges: bottom end (below 0.6), midrange (0.6 to below 0.7), top end (0.7 or more)

Sample answers from the record:
monomersequence="RKKLFYKADGE [SERPINC1_Y272_E269K]" targetsystem="FGFR3 (UniProt P22607)" label="bottom end"
monomersequence="HYVYYYSYLLK [PTEN_Y178_R173H]" targetsystem="FGFR3 (UniProt P22607)" label="top end"
monomersequence="QQTYTYDSGIH [JUP_Y22]" targetsystem="FGFR3 (UniProt P22607)" label="top end"
monomersequence="EAVLHYKHQNQ [MTOR_Y1804]" targetsystem="FGFR3 (UniProt P22607)" label="bottom end"
monomersequence="EPSLVYMVTKI [CPS1_Y768_D767V]" targetsystem="FGFR3 (UniProt P22607)" label="top end"
monomersequence="HIAKVYRRDNP [HARS1_Y156]" targetsystem="FGFR3 (UniProt P22607)" label="top end"
monomersequence="EDNPEYMRLRN [ADD2_Y31_D28N]" targetsystem="FGFR3 (UniProt P22607)" label=midrange
monomersequence="ARSHIYTFASC [MEFV_Y741]" targetsystem="FGFR3 (UniProt P22607)" label=midrange
monomersequence="PQGVRYIFTID [DCX_Y103_YF]" targetsystem="FGFR3 (UniProt P22607)" label="top end"
monomersequence="KWRGQYDVAIK [BTK_Y425]" targetsystem="FGFR3 (UniProt P22607)" label="bottom end"

From here, focus on the item given below.
Input line: Any idea which band ISGGGYRACPA [FGB_Y71_R74C] is in?
Output line: bottom end

###

phosphorylation enrichment for assorted sequences
Target: Jak2 (UniProt O60674)
Sequence (O60674 whole entry, looked up): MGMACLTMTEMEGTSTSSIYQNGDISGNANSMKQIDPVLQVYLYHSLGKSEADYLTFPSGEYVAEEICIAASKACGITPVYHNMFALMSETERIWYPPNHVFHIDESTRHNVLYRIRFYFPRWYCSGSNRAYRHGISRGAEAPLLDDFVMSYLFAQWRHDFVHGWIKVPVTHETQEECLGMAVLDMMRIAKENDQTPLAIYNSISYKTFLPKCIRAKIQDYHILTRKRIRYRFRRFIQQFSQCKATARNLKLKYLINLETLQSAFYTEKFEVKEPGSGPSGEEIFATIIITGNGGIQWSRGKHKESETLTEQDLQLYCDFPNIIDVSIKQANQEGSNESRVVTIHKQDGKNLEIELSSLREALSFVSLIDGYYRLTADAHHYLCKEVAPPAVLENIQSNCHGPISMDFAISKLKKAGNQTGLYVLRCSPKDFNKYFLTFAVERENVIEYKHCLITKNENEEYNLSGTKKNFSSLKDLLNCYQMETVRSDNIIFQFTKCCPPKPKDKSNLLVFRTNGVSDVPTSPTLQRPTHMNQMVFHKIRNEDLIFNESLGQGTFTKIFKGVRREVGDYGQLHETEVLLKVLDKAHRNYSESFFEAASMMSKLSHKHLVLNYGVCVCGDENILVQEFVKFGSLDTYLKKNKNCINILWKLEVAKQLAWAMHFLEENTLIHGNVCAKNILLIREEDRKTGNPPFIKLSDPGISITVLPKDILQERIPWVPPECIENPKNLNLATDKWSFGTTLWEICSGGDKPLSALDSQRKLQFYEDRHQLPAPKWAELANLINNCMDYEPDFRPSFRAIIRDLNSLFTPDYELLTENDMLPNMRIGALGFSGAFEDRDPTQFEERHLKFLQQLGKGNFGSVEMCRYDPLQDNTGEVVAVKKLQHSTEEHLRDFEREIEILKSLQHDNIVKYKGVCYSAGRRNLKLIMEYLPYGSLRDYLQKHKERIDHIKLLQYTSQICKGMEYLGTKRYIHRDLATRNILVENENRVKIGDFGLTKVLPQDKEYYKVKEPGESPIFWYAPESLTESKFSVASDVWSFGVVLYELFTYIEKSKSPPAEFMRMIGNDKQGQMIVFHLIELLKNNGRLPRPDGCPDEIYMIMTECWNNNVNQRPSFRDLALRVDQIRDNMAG
Experiment: phosphorylation enrichment, bacterial display (enrichment ratio); higher = better substrate or ligand; peptides without Tyr show the background
// no unit, no text: just the number

monomersequence="LRLFSYSTTIR [CYP7B1_Y365_S363F]" measurednumber=1

Value of phosphorylation enrichment reported for the sequence EWQQIYTYDSG [JUP_Y20_T19I] is 1

Value of phosphorylation enrichment reported for the sequence VSYDEYRYRSF [CFTR_Y515_V520F] is 0.983

Value of phosphorylation enrichment reported for the sequence CATIHYNYMCN [TP53_Y234_T230A] is 0.717

###

Tested on: AncSZ
Assay: phosphorylation enrichment, bacterial display (enrichment ratio); higher = better substrate or ligand; peptides without Tyr show the background
phosphorylation enrichment for assorted sequences

monomersequence="QYQEKYKQMEQ [HCN4_Y531_V534M]" targetsystem=AncSZ propertymeasured="phosphorylation enrichment" result=0.99
monomersequence="KKCTTYIDCDL [ASPA_Y64_R63T]" targetsystem=AncSZ propertymeasured="phosphorylation enrichment" result=0.975

Alright, here's another sequence for you.
# phosphorylation enrichment measured on AncSZ for item ICANKYMVESC [RPL10_Y75_K78E] = 0.982

###

Molecular target: EPHB1 (UniProt P54762)
Sequence (P54762 whole entry, looked up): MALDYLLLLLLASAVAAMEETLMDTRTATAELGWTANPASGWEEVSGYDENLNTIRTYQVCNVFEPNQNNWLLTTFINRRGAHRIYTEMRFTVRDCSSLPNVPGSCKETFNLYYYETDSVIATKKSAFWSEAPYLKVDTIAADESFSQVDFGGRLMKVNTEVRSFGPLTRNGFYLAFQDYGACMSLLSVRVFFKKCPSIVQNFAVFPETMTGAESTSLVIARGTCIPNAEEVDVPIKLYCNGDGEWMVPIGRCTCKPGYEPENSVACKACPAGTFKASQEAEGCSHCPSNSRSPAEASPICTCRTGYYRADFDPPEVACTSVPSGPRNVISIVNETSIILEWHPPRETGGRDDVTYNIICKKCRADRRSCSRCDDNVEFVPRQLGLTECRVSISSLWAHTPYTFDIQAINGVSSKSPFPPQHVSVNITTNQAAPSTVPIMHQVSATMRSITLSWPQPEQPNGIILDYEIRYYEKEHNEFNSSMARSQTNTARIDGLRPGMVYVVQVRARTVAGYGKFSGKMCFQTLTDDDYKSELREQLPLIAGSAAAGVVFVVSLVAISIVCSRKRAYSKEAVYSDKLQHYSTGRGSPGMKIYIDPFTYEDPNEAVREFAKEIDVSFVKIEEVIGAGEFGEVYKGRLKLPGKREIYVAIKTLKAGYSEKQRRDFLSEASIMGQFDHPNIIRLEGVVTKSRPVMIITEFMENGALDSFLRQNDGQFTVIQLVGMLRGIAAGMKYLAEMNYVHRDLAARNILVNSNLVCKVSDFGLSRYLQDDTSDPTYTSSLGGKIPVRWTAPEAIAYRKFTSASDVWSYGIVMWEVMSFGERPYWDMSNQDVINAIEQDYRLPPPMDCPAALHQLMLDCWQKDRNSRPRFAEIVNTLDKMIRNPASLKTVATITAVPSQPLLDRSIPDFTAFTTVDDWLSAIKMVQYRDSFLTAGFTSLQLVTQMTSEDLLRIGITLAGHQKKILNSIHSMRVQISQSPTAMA
Test: phosphorylation enrichment, bacterial display (enrichment ratio); higher = better substrate or ligand; peptides without Tyr show the background
phosphorylation enrichment for assorted sequences
// no unit, no text: just the number

Some solved cases for reference:
monomersequence="SAPPSYEETVA [LITAF_Y23]" measurednumber=0.6
monomersequence="FRSSLYLLMET [MYO5C_Y633]" measurednumber=0.804

Alright, here's another sequence for you.
# phosphorylation enrichment measured on EPHB1 (UniProt P54762) for item PKGWNYELPAT [PROM1_Y34_A31G] = 0.597
